# System: UO-31 renal
# test: NCI tumour cell line growth inhibition, 48 h
Provide the reported TGI of each item.
Answers are plain numbers, in µM.

smiles repr	observed property	units of measure	observed value
Nc1ncc(-c2ccc3ncnc(N4CCc5ccc(Cl)cc54)c3c2)cc1C(F)(F)F	TGI	µM	4.62
CCC(=O)N1C/C(=C/c2ccc(Br)cc2)C(=O)/C(=C/c2ccc(Br)cc2)C1	TGI	µM	1.5
CCCCCCCCCCNCCSS(=O)(=O)O	TGI	µM	12.9

Continue with the next molecule.
Problem: Note down TGI recorded for O=C1Nc2ccccc2/C1=C\c1nc(-c2ccccc2F)n2ccccc12
Result: 10.8

---

# System: UACC-257 melanoma
# test: NCI tumour cell line growth inhibition, 48 h
What GI50 was measured for each of the following?

Sample records with GI50:
molecule	target of assay	GI50
C[N+](C)(C)c1cc[c]([Sn]([c]2ccc([N+](C)(C)C)cc2)([c]2ccc([N+](C)(C)C)cc2)[c]2ccc([N+](C)(C)C)cc2)cc1	UACC-257 melanoma	> 100 µM
Cc1nc2sc3c(N)ncnc3c2c(C)c1C	UACC-257 melanoma	> 25 µM
COc1ccc(C(=O)c2cc3c(N)c(C(=O)Nc4cccc(Br)c4C)sc3nc2C)cc1	UACC-257 melanoma	> 100 µM

Give one value of GI50 per listed molecule.
1. O=C1NC2(CCCCC2)C(=O)N1CCN(CCCl)CCCl
2. C=C1C(=O)O[C@H]2[C@H]1CC/C(COC(=O)/C=C\C(=O)NCc1ccc(Cn3c(=O)sn(CCI)c3=O)cc1)=C\CC[C@@]1(C)O[C@@H]21
3. COCCc1n(Cc2ccc3ccccc3c2)c2ccccc2[n+]1Cc1ccc2ccccc2c1
4. COc1cc(-c2nc3ccccc3o2)cc(CN2CCCCC2)c1O
5. CCC(C)C1=C(O)[N+]2([O-])Oc3ccc(C4=C(O)C(=O)C(c5ccc(O)cc5)=C(O)C4=O)cc3OC2(C(C)CC)C(=O)N1O (configuration not stated)

Result:
["> 25 µM", "2.07 µM", "0.456 µM", "2.06 µM", "11.5 µM"]

Hi there! I need GI50 for each item below, if you can.
1. O=C(NCCOCCOCCOCCNC(=O)c1cc2c(o1)C(=O)c1ccccc1C2=O)NC12CC3CC(CC(C3)C1)C2
2. CCOc1ccc(C(C[N+](=O)[O-])Sc2ccccc2N)cc1 (configuration not stated)
3. CCCCCCCCCCNCCSS(=O)(=O)O
4. O=C1Cc2cc(CCn3cncn3)c(Cl)cc2N1
5. C#C[C@@]1(O)[C@@H](CO)O[C@@H](n2cc(C(F)(F)F)c3c(N)ncnc32)[C@@H]1O
6. Oc1[nH]c2ccccc2c1/C=c1/ccc2c(c1)N=C(c1ccc(C(F)(F)F)cc1)N=2
7. O=C1C=C(OCC=C(C(F)(F)F)C(F)(F)F)c2ccccc2C1=O

Result:
1. 1.36 µM
2. 4.6 µM
3. 7.88 µM
4. 7.14 µM
5. 0.6 µM
6. 7.4 µM
7. 1.42 µM

Items follow; give GI50 for each.
1. Clc1cccc(CNc2c3ccccc3nc3ccccc23)c1
2. O=C(Nc1cc(Cl)ccc1O)c1cccc(Nc2ccnc(C(F)(F)F)c2)c1

Result:
1.92 µM
4.63 µM

---

# Test system: HL-60(TB) leukemia
# test: NCI tumour cell line growth inhibition, 48 h
# cutoff 4 µM applies to TGI; >= gives 1, < gives -1

# example entries with known answers
compound	class name
COc1cc([C@@H]2c3cc4c(cc3[C@@H](OC(=O)c3cccc(N)c3)C3COC(=O)[C@@H]32)OCO4)cc(OC)c1O (stereo partly specified)	1
Nc1nc(N)c2ncn(CCOC(c3ccccc3)P(=O)(O)O)c2n1 (stereo unspecified)	1
COc1ccc(C2C(C#N)=C(N)Oc3c2sc2c(Br)cccc32)cc1 (stereo unspecified)	-1
COc1ccccc1[As]=[As]c1ccccc1OC (stereo unspecified)	-1
CC1=C(C(=O)Nc2ccc(F)c(Cl)c2)C(c2cccc(Oc3ccccc3)c2)NC(=S)N1 (stereo unspecified)	1

Problem: Is TGI for Cn1c(=O)cc2[nH]c3ccccc3n2c1=O at or above 4 µM?
Result: 1

Problem: Is TGI for ClCC[N-]CC[N-]CCCl.ClCC[N-]CC[N-]CCCl.[O-][Cl+3]([O-])([O-])O.[Zn+2] at or above 4 µM?
Result: 1

Problem: In plain terms: is recorded TGI at least 4 µM for c1ccc2c(c1)c1c3c(c4c(n32)=NCCN4)CCC1 ?
Result: 1

Problem: Evaluate CCC1(CC)N=C(C(F)(F)F)c2cc(C(=O)C(F)(F)F)c3ccccc3c2N1 : TGI at minimum 4 µM?
Result: 1

Problem: In plain terms: is recorded TGI at least 4 µM for COc1c(C(C)(C)C)cc(CC2C(=O)C=CC2=O)cc1C(C)(C)C ?
Result: 1

Problem: Is TGI at least 4 µM? Consider CCC/C(Cl)=N/OC(NC(=O)OCC)(C(F)(F)F)C(F)(F)F
Result: 1
